experimental.details: Inhibition of IL1-beta-induced GFP-tagged NFkappaB nuclear translocation in CHO cells pretreated for 4 hrs before IL1-beta challenge using Hoechst staining by fluorescence microscopy relative to control
Type: cell-based
setup.conditions: Cricetulus griseus
pIC50: −log10 of the molar value.
readout: pIC50

INSERT INTO results (compound, meas_value) VALUES
  ('C[C@H](CCC(=O)O)[C@H]1CC[C@H]2[C@@H]3[C@H](O)CC4=CC(=O)C=C[C@]4(C)[C@H]3C[C@H](O)[C@]12C (relative stereo)', 4.15);
